# System: HCT-15 colon
# Experiment Summary: NCI tumour cell line growth inhibition, 48 h
In this section, each of the compounds is paired with its reported GI50.
Measurement Kind: GI50

INSERT INTO measurements (structure_as_smiles, measurement_kind, measured_result) VALUES
  ('CCOC(=O)[C@H]1O[C@@H]1C(=O)N[C@@H](CC(C)C)C(=O)NCCc1ccc(O)cc1', 'GI50', '> 100 µM'),
  ('FC(F)(F)c1nnn[n-]1.[Au+].c1ccc([PH+](c2ccccc2)c2ccccc2)cc1', 'GI50', '2.19 µM'),
  ('CCn1cc(C(=O)O)c(=O)c2cc(F)c(N3CCN(S(=O)(=O)c4ccc(Cl)cc4)CC3)cc21', 'GI50', '3.62 µM'),
  ('Nc1nc(/C=C\c2ccc([N+](=O)[O-])cc2)nc(N2CCN(c3ccccc3)CC2)n1', 'GI50', '25.3 µM');

----------
In this section, each of the molecules is paired with its reported GI50.
# Tested on: UACC-257 melanoma
# Experiment Summary: NCI tumour cell line growth inhibition, 48 h
Measurement Kind: GI50

INSERT INTO results (molecule, measurement_kind, measured_result) VALUES
  ('CC(=O)[CH-]C(C)=O.CC(=O)[CH-]C(C)=O.CC(=O)[CH-]C(C)=O.[In+3]', 'GI50', '> 100 µM'),
  ('O=C(Nc1ccc(CN2CCOCC2)cc1)c1ccc(-c2cc(Cl)ccc2Cl)o1', 'GI50', '11.2 µM'),
  ('O=C1C=CC(=O)N1C1CCCCCCCCCCC1', 'GI50', '13 µM'),
  ('CN(C)CCCOc1ccc(OCCCN(C)C)c2c1C(=O)c1ccccc1C2=O', 'GI50', '2.38 µM'),
  ('COc1cc(NCCCCCN=C(N)N)c2ncccc2c1', 'GI50', '4.38 µM'),
  ('CCCCN1CCN(c2ccc3nc(-c4ccc5nc(-c6ccc(OC)c(OC)c6)[nH]c5c4)[nH]c3c2)CC1', 'GI50', '0.537 µM'),
  ('Nc1nc2c(c3ncccc13)C(c1cccc(Br)c1)Cc1ncccc1-2 (stereo not drawn)', 'GI50', '18.2 µM'),
  ('ClCc1ccc(-c2ccc(Cn3cnc4nc(Cl)nc(Cl)c43)cc2)cc1', 'GI50', '3.04 µM');

----------
In this section, each of the compounds is paired with its reported GI50.
# Tested on: A549 NSCLC
# Experiment Summary: NCI tumour cell line growth inhibition, 48 h
Measurement Kind: GI50

INSERT INTO assay_data (compound, measured_result) VALUES
  ('C[C@@H]1C[N+]2([O-])[C@H]3C4=CCC[C@@H]4CC[C@H]3[C@@]3(C)OC(=O)CC[C@]34CC[C@H]1[C@@H]42 (stereo not given in full)', '> 60 µM'),
  ('COc1cc(NCCCCCN=C(N)N)c2ncccc2c1', '30 µM'),
  ('CCCCN1CCN(c2ccc3nc(-c4ccc5nc(-c6ccc(OC)c(OC)c6)[nH]c5c4)[nH]c3c2)CC1', '1.17 µM'),
  ('N=C(N)N=Nc1ccc(NN=C(N)N)c2c1ncc1c2nc2sccn21', '42.7 µM'),
  ('CC(=O)[CH-]C(C)=O.CC(=O)[CH-]C(C)=O.CC(=O)[CH-]C(C)=O.[In+3]', '> 100 µM');

----------
In this section, each of the molecules is paired with its reported GI50.
# Tested on: MCF7 breast
# Experiment Summary: NCI tumour cell line growth inhibition, 48 h
*1 amine or outer side, *2 acyl side, *3 side chain or, on linkers, in order; H or OH if unused. Where a SMILES comes first, the peptide text is derived from it. Bridges are numbered along the chain shown (N, C = ends). [ ]: non-standard residue; d: D form. Adda = CO[C@@H](Cc1ccccc1)[C@@H](C)/C=C(C)/C=C/[C@H](N[*:1])[C@H](C)C(=O)[*:2]; dAsp(3S-Me) = C[C@H](C(=O)[*:3])[C@@H](N[*:1])C(=O)[*:2]; d(γGlu) = O=C(O)[C@@H](CCC(=O)[*:2])N[*:1]; NMeDha = C=C(NC)C(=O)O
Measurement Kind: GI50

INSERT INTO assay_data (molecule, measured_result) VALUES
  ('O=c1c2cc(F)ccc2sc2c(N3CCNCC3)nc3ccccc3c12', '1700 nM'),
  ('CN1CCc2c(c3ccccc3c3ccccc23)C1', '3630 nM'),
  ('O=C1Nc2cc(Cl)ccc2/C1=C\c1c(-c2ccc(F)cc2)nc2ccccn12', '387 nM'),
  ('CCOC(=O)N1C/C(=C/c2ccc(F)cc2)C(=O)/C(=C/c2ccc(F)cc2)C1', '327 nM'),
  ('C=C1C(=O)N[C@H](C)C(=O)N[C@@H](CC(C)C)C(=O)N[C@@H](C(=O)O)[C@H](C)C(=O)N[C@@H](CCCN=C(N)N)C(=O)N[C@@H](/C=C/C(C)=C/[C@H](C)[C@H](Cc2ccccc2)OC)[C@H](C)C(=O)N[C@@H](C(=O)O)CCC(=O)N1C (R[Adda][d(γGlu)][NMeDha][dA]L[dAsp(3S-Me)]-OH; lactam N-7)', '> 5000 nM'),
  ('COc1cc(NCCCCCN=C(N)N)c2ncccc2c1', '179 nM'),
  ('COc1ccc(C(=O)c2cc(OC)c3c(c2)OCO3)cc1O', '332 nM'),
  ('O=C(Nc1ccc(CN2CCOCC2)cc1)c1ccc(-c2cc(Cl)ccc2Cl)o1', '9980 nM');

----------
# System: HL-60(TB) leukemia
# Experiment Summary: NCI tumour cell line growth inhibition, 48 h
In this section, each of the compounds is paired with its reported TGI.
Measurement Kind: TGI (µM)

INSERT INTO results (compound, value_units, relation_qualifier, measured_result) VALUES
  ('CC1CC(c2ccc([N+](=O)[O-])cc2)=Nc2ccccc2S1 (stereo not given)', 'µM', '=', 36.4),
  ('COc1ccc2[nH]c(-c3ccccc3)c(/C=C(\C#N)S(=O)(=O)c3ccccc3)c2c1', 'µM', '=', 7.11),
  ('CN(C)c1ccc(C(=O)NCCCCCCC(=O)NO)cc1', 'µM', '>', 63.8),
  ('Fc1cnc(NC2CC2)nc1-c1cnc2ccc(N3CCOCC3)cn12', 'µM', '=', 1.01),
  ('COc1ccc(/C=N/c2nc3cc4sc(/N=C/c5ccc(OC)cc5)nc4cc3s2)cc1', 'µM', '>', 100);

----------
In this section, each of the compounds is paired with its reported TGI.
# Tested on: SK-MEL-28 melanoma
# Experiment Summary: NCI tumour cell line growth inhibition, 48 h
Measurement Kind: TGI

INSERT INTO measurements (compound, target_desc, measured_result) VALUES
  ('Nc1nc2c(c3ncccc13)C(c1cccc(Br)c1)Cc1ncccc1-2 (stereo unspecified)', 'SK-MEL-28 melanoma', '22.6 µM'),
  ('O=C1CN2C(Cl)(Cl)C2(c2ccccc2)c2cc(Cl)ccc2N1CC1CC1 (stereo unspecified)', 'SK-MEL-28 melanoma', '32.9 µM'),
  ('CN(C)c1ccc(C(=O)NCCCCCCC(=O)NO)cc1', 'SK-MEL-28 melanoma', '13.9 µM'),
  ('COc1ccc2[nH]c(S(=O)(=O)N3CC(CCl)c4ccc(N)cc43)cc2c1 (stereo unspecified)', 'SK-MEL-28 melanoma', '68.2 µM'),
  ('CC(C)c1cc(Cl)nc(Cl)n1', 'SK-MEL-28 melanoma', '> 100 µM'),
  ('CCn1cc(C(=O)O)c(=O)c2cc(F)c(N3CCN(S(=O)(=O)c4ccc(Cl)cc4)CC3)cc21', 'SK-MEL-28 melanoma', '> 100 µM'),
  ('O=C1CCCCCCCCCCC(=O)N2CCOCCOCCN1Cc1cccc(n1)C2', 'SK-MEL-28 melanoma', '> 100 µM'),
  ('CN(C)CCC=C1c2ccccc2C=Cc2ccccc21', 'SK-MEL-28 melanoma', '31.3 µM'),
  ('Nc1nc(-c2ccccc2)c(Cl)c(-c2cc(Cl)ccc2O)n1', 'SK-MEL-28 melanoma', '> 100 µM'),
  ('COc1cc(C(=O)NC(CCN)(c2ccccc2)c2ccccc2)cc(OC)c1OC', 'SK-MEL-28 melanoma', '21.4 µM'),
  ('O=C1CC(=O)NC(=NN2C(=O)CSC2c2ccccc2)N1 (stereo unspecified)', 'SK-MEL-28 melanoma', '> 100 µM'),
  ('Cc1cc(S(=O)(=O)n2ccnc2Oc2cccc(Cl)c2)c(SSc2cc(Cl)c(C)cc2S(=O)(=O)n2ccnc2Oc2cccc(Cl)c2)cc1Cl', 'SK-MEL-28 melanoma', '> 100 µM'),
  ('O=[N+]([O-])c1ccccc1S(=O)(=O)c1cc(O)cc2c1NCCC2', 'SK-MEL-28 melanoma', '33.9 µM'),
  ('CCc1cccc(C)c1NC(=O)C1=C(C)NC(C)=C(C(=O)Nc2c(C)cccc2CC)C1c1ccc([N+](=O)[O-])cc1', 'SK-MEL-28 melanoma', '> 100 µM'),
  ('CC1CC(c2ccc([N+](=O)[O-])cc2)=Nc2ccccc2S1 (stereo unspecified)', 'SK-MEL-28 melanoma', '32.2 µM'),
  ('CC(CC[C@@H](C)C1CCC2[C@@H]3CC(O)C4CC(O)[C@@H](O)C[C@]4(C)C3CC[C@@]21C)C(C)(C)C (stereo partly specified)', 'SK-MEL-28 melanoma', '> 100 µM'),
  ('CCN(CC)C(=O)C[n+]1c2ccccc2n2cc(N)ccc21', 'SK-MEL-28 melanoma', '> 100 µM'),
  ('COc1cc(OC)cc(-n2c(N)c(C#N)c3ccc([N+](=O)[O-])cc3c2=O)c1', 'SK-MEL-28 melanoma', '> 100 µM'),
  ('O=C1NC2C(=O)N(Cc3ccccc3)C(=O)C2N1 (stereo unspecified)', 'SK-MEL-28 melanoma', '> 100 µM'),
  ('COc1ccc(SCc2cc(OC)c(OC)c(OC)c2)cc1OC', 'SK-MEL-28 melanoma', '> 100 µM'),
  ('COc1cc2c(cc1O)NC(=S)[C@@H]1CCCN1C2=O', 'SK-MEL-28 melanoma', '> 100 µM');
